Tested on: K4 kissing-loop RNA reporter
Assay method text: apparent KD of K4 kissing-loop reporter; higher = weaker reporter binding
Study conditions: Eterna round: R107; input ligand: tryptophan 2.4 mM
Exercise: state measured apparent KD of K4 kissing-loop reporter for each of the sequences provided.
Use nM as the unit, but write only the number.

Tell me the measured apparent KD of K4 kissing-loop reporter of UGUAUGUGAUUUGAUACCAGACCAGCUGGUGGUACCUGAGUGAUGUUCGGGAUGGUUUGGGUCCCUUGGCAGCAAAUCGCAUACU [KL-SSTheoB20] , please.
170

Return reported apparent KD of K4 kissing-loop reporter; argument: AAAUUUAUAUUAGAUACCAGCAUAUUGAAAGUUUAUUAUGACAAGAGUGAUGUUCUUGUAUGCCCUUGGCAGCUGGUAUGGGUUU [KL-XTheo-B25]
110

// query apparent KD of K4 kissing-loop reporter value for entry AUAAUAAAGACGGCCGCCACUGAGAGUAGUGAUGUUACUCUUUUCCUUUAGAAAUAAUAUUUUAUCAGGACCGGGUUUUUUGAAU [JR_Nu_ExcTryptoB_Sub026]
92

# get_value(readout='apparent KD of K4 kissing-loop reporter', item= GACCUAAGCUAUGAUACCAGUCUGGCACGAAGAAGUGAUGUUUCCCAGCGUUUGUCACUUGACCCUUGGCAGCAUGCGAUCAGCU [theeternabot_sameState_KL_Theo_B_29] )
128

Quick check: apparent KD of K4 kissing-loop reporter of CGAUAUAAGAAUAUAUAUCUCUAUUCAGAAGGAGCGUGUUUGUACACAGGUAGGUCGCUGAAAUUUAAACUAGUGAUGUUAGACU [JR_SSArginiA_Sub002] ?
890

Recorded apparent KD of K4 kissing-loop reporter for UUGCUUCUACUAGGAUAUCAUCAGUCAUGUUCAAUGACACUCGAGUGAUGUUCGAUAGAAGCGAGAUGAGAAGGAGUACAAGCAG [FMB B SS t3] , please?
70.7

###

System: K4 kissing-loop RNA reporter
Assay method text: apparent KD of K4 kissing-loop reporter; higher = weaker reporter binding
Study conditions: Eterna round: R107; input ligand: tryptophan 2.4 mM
Entries get a class label from measured apparent KD of K4 kissing-loop reporter. See ranges: low: < 100 nM; medium: ≥ 100 nM and < 400 nM; high: ≥ 400 nM

Form: Item = ACGUGCACUAGUGAUGUUGGAAAAUAGGAAGGAGCGGGCGAAAGCCCAGGUAGGUCGCCUAAUAGCACGAGCCACGAAAGUGGCA ; Class = ?
high

# bin lookup: classify UGAACCCGGUCGGCCGCCACUCUGAGAACCAUCGCCCUACGUGCAGUGAUGUUGUACCUAAUGAGGAGGACCGGGACUGGGCGGC [theeternabot_sameState_KL_Trp_B_36] by its apparent KD of K4 kissing-loop reporter
medium

Hey, which category is CGAGUGAUGUUCGUUCGUUUAUUUCGGUGACAGGAUAUGCGGAAACGCAGAAGGGUCACCUUUGAGUUACCGGAAUUAACGUUAU [Ex FMN A 29] in, do you know?
high

Quick check: band for UGACUACAAAAGGAAUAAUCCUAGUGAUGUUAGGAUAUGCUGAUAAGCAGAAGGAACGGAGAUCGAAAGAUCUCAAAUGUAGUCU [whbob_Ex_FMNA__2th191]
low

Hi, small favor: classify GAUGAAUGCGGAAGGAGCGAGUUUUUGGGAGUGAUGUUCCCUGCAUAUGCACGUGGGAAAGCUCAGGUAGGUCGCCGCGCUUGUU [Same State Arginine B GF 28] by its apparent KD of K4 kissing-loop reporter when you get a moment.
medium

Hi, small favor: classify GGGUAUUACGGAGGAUAUGCACUGAGGAGGAGAAUAUAGUGAUGUUAUAUAAGAGGAAGGAGAAGAGUAGAAGGCCGUGGUGUUU [SSFMNB.J] by its apparent KD of K4 kissing-loop reporter when you get a moment.
medium

Any idea which band AGGUGCUACGGAAGGAGCGCACCAGUGAUGUUGGUGUGUGACCGUGACAUGGCAGUCAAGGUGCAGGUAGGUCGCCGUGGCCUUU [Geeseris] is in?
medium

Kindly identify the class of AUGCUGUCGGCGUUAAAGUAGUAAUGUGAUACCAGAAAUGCUGUGUUCCCUUGGCAGCACAUUCUUACAGACAGUGAUGUUGUCU [theeternabot_exclusion_KL_Theo_A_8] .
medium

Which of the defined bands does the recorded apparent KD of K4 kissing-loop reporter of AUGUACAUUCUCAGUGAUGUUGGGUUGUAACGAGGACCGGUACGGCCGCCACUCGGGAUGUGGUAUAUAGAUGUAUGUGUAGCAU [skye_SS_TA] sit within?
high

Lab log: UGAUAGGACAGAAGGAGCGGAAGUGAUGUUUCCAAAAGGGUAAGGUGUCAAAAGACACCCUUCCAGGUAGGUCGCUGUCCUAUCU — assign apparent KD of K4 kissing-loop reporter category
low

Sort AGACUACUGAUAGGAUAUAACAUCCUAGUCGUAUACCGAAAGGUAUACGAAACCCUUCUAGUGAUGUUAGAAGGGUCGGUAGUCA [Omei KL FMN B Exc B v9] into one of the categories.
low

###

Tested on: MS2 coat protein
Assay method text: apparent KD of MS2 coat protein; higher = weaker reporter binding
Study conditions: Eterna round: R107; input ligand: tryptophan 2.4 mM
Kindly state apparent KD of MS2 coat protein for each of the entries shown.
Response body: numeric value in nM, unit text excluded.

apparent KD of MS2 coat protein for GAAUUAUGACGUGAUACCAGUGGUCAAUACUGGGAACUUAACAUGAGGAUCACCCAUGUCCACCCUUGGCAGCACGCUGACAAUC [theeternabot_exclusion_MS2_Theo_B_14] ?
79.6

Given UACAUGAGGAUCACCCAUGUAUGAAUGGAUACCAGAUAAAAUAAGGUCCCUUGGCAGCUAGUGAAUCGAGGGUGGGUAUCAUGUU [#14 Exclusion-TheophyllineA] , state its recorded apparent KD of MS2 coat protein.
9.89

Reported apparent KD of MS2 coat protein, sequence CCGGAGACCUCGGCCGCCACUCUCCAUGAGGAUCUCCCAUGUAACAUGAGGAUCACCCAUGUGCUGAGGACCGGGAGGUCCUCCU [Same State Tryptophan B GF 20] : ____
20.9

Which apparent KD of MS2 coat protein reading was recorded for the sequence GCUGUAAGUGCAGAUACCAGCAUGUUAUAUUUCUAAUGACAUGAGGAUCACCCAUGUAAAUGCCCUUGGCAGCUGCACUUACAGC [SSTHB #6] ?
18.7

Any idea what apparent KD of MS2 coat protein was measured for AUCCAUAGCCGAAGGAGCGCAGUAGGAUGACAUGAGGAUCACCCAUGUGUGUGAUGUGGAUUGCAGGUAGGUCGCGGAGUGGGAU [Exclusion - Arginine B (Freestyle 6)] ?
47.2

Would you mind telling me what apparent KD of MS2 coat protein value was observed for GUCGGAGUCUGAAGGAGCGACAUGAGGAUCACCCAUGUCUCCCGUUAUGGGAGUUCCUUAGGUCAGGUAGGUCGCAGACUCCGAC [#1 Exclusion - Arginine B Attempt #25 (Inspired by Omei)] ?
140

If you can, please state the reported apparent KD of MS2 coat protein value of GAACAAGGUUUCUUGUUCGGUCGCUGAGAAGGAGCGCGGUAACCCGCAGGUAGGUCGCUCAGAAAUACAUGAGGAUCACCCAUGU [Anaa] .
17.8

# query: apparent KD of MS2 coat protein of entry UAAGCGCGAGGAGACGGAACCAAUCUUGUUCGAGGACCGGUACGGCCGCCACUCGGCGUAAAACAUGAGGAUCACCCAUGUGCAA [theeternabot_exclusion_MS2_Trp_A_18]
16.4

// lookup apparent KD of MS2 coat protein for ACACGGCAUGAUGGAUCACCUCGUGAAUCACGAGGACCGGUACGGCCGCCACUCGAAAACCGUGACCUGUACGAAAAGUGCAGGA
38.8

I would be grateful if you could share the reported apparent KD of MS2 coat protein for UCAAUAAUUAGAUUGUUACAUGUAUCAGAAGGAGCGUGAGUAAUCACAGGUAGGUCGCUGUUAACAUGAGGAUCACCCAUGUUUU [JR_ExcArginiA_Sub009] .
36.8

Which apparent KD of MS2 coat protein is listed for UAUCGUCAGACGGCCGCCACUAGAACAUGAGGAUCACCCAUGUACGGCCGCUCGGUCCUCAUGACUAGGACCGGGUCUGACGAAU [(Trp1)-(Ms2)-(T)'-(M)'-(Trp2)_Design22] ?
9.96

###

Please go through the items and note down their apparent KD of K4 kissing-loop reporter.
Test system: K4 kissing-loop RNA reporter;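 also: bound reporter read as fluorescence of individual clusters on recovered sequencing chips by microscopy, with normalized cluster intensities fitted with a binding model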
Assay method text: apparent KD of K4 kissing-loop reporter; higher = weaker reporter binding
Study conditions: Eterna round: R107; input ligand: theophylline 20 uM
Numbers only; they are read as µM.

Look up apparent KD of K4 kissing-loop reporter: GGGCAAGUGAGUGAUGUUCGAUGAUGCUUAAAGGAUAUGUAGGAAUACAGAAGGUUAUAUUCCCUGACAUUAGAUCUUUACAGGG [theeternabot_exclusion_KL_FMN_A_44]
0.151

Fill in the blank: the reported apparent KD of K4 kissing-loop reporter of AGUGAUGUGGGAAGGAGCGGUAUAUGAGUUCAGUGAUGUUGAAGUGAUGCUGUAGUGAUGUGCCAGGUAGGUCGCCUAGAUGUUA [whbob_Ex_Arginine_B_2th165] is ____.
0.194

Which value of apparent KD of K4 kissing-loop reporter has been reported for AAUUAAUACAGAAGGAGCGUGUUUUUUAAUUUAUUUUCAUGAUCGAGUGAUGUUCGAUAUACACAGGUAGGUCGCUGUAUAUUUA [JR_SSArginiB_Sub008] in the records?
0.139

Which apparent KD of K4 kissing-loop reporter is listed for UAAAUUAUCUGAAGGAGCGUGAAAUAAUAUUAAACAUAACAACCCAGUGAUGUUGGGUUAUCACAGGUAGGUCGCAGAUGUAGAU [Same State Arginie B GF 24] ?
0.118

Looking for the measured apparent KD of K4 kissing-loop reporter of GUCCCAGUGAUGUUGGUAGGCGGGCGGGAUACCAGCGAAGACUCACGCCCUUGGCAGCCCACAUAUCCCGCGUAGGGAUUAGCCC [Same State - Theophylline A (Freestyle 22)] , can you help?
0.638

Query (sequence): AAUGUACAAGUGAUGUUUGUACUUUCCGAAGGAGCGUCUAAUAAGACAGGUAGGUCGCGGAUUCUCUUAAUUAUCAGGUCAUUAA [JR_ExcArginiA_Sub017] ; field requested: apparent KD of K4 kissing-loop reporter
0.0806
